# MIC values compiled below
system: Ps. aeruginosa; assay: preservative for cutting oil emulsions; assay type: cell-based; details: Pseudomonas aeruginosa, 672 h, read-out: Minimum Inhibitory Concentration, cutting oil emulsion, incubation 4 weeks, 28°
A number alone suffices; assume µg/mL.

Here is how some compounds turned out for MIC.
{"Compound": "Cn1sccc1=S", "Unit abbreviation": "µg/mL", "MIC": 250}
{"Compound": "C[n+]1sc(Cl)c(Cl)c1Cl.O=S(=O)([O-])C(F)(F)F", "Unit abbreviation": "µg/mL", "MIC": 64}
{"Compound": "C[n+]1sccc1Cl.O=[N+]([O-])[O-] [No. 15 (Table I), 2-Methyl-3-chloroisothiazolium nitrate]", "Unit abbreviation": "µg/mL", "MIC": 8}
{"Compound": "Cc1s[n+](C)c(Cl)c1Cl", "Unit abbreviation": "µg/mL", "MIC": 500}
{"Compound": "CC[n+]1sccc1Cl", "Unit abbreviation": "µg/mL", "MIC": 500}
{"Compound": "Cn1sc(Cl)c(Cl)c1=S", "Unit abbreviation": "µg/mL", "MIC": 62}

Dear colleague, I am looking for the recorded MIC of the following compound: `Cn1scc(Cl)c1=S`
62

Dear colleague, I am looking for the recorded MIC of the following compound: `CCC[n+]1sccc1Cl`
500
